Target Or Test System: Mitogen-activated protein kinase 8 (Homo sapiens, UniProt P45983)
Sequence (P45983 whole entry): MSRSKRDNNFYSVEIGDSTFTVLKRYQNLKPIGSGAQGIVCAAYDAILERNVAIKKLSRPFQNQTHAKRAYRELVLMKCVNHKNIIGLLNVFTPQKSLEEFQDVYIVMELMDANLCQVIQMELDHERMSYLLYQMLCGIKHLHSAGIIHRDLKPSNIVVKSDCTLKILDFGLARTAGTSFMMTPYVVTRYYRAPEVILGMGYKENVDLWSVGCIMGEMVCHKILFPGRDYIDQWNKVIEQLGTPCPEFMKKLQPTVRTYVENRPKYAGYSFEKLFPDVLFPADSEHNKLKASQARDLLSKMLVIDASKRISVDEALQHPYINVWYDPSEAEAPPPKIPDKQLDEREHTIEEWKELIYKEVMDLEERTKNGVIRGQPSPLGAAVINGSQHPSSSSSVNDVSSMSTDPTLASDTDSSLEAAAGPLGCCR
Method: Inhibition of human JNK1 by radiometric assay
The following molecules are shown together with reported pIC50 values.
Note on units: pIC50 is unitless, being -log10 of a concentration expressed in mol/L.

{"Smiles Data": "CCC(=O)c1c(-c2ccccc2)c2cc(Cl)ccc2c(=O)n1Cc1cc(C(=O)N(C)C)n(C)n1", "pIC50": 7.96}
{"Smiles Data": "CCC(=O)c1c(-c2ccccc2)c2cc(Cl)ccc2c(=O)n1Cc1cc(S(C)(=O)=O)n(CC(C)=O)n1", "pIC50": 8.12}

Next, consider the following molecule.
IN: Returns the measured pIC50 for the input molecule. Input: CCC(=O)c1c(-c2ccccc2)c2cc(Cl)ccc2c(=O)n1Cc1cc(S(C)(=O)=O)n(CCC(C)(C)O)n1
OUT: 8.00

====

Method: Metabolic stability in human microsomes at 1 uM
Assay type: ADME, Microsome
Condition Notes: read-out: Stability
microsomal CLint at 1 µM values, listed per item

{"Smiles Data": "CCC(=O)c1c(-c2ccccc2)c2cc(Cl)ccc2c(=O)n1Cc1cc(S(C)(=O)=O)n(CC(C)=O)n1", "Result": "70 µL/min/mg"}
{"Smiles Data": "CCC(=O)c1c(-c2ccccc2)c2cc(Cl)ccc2c(=O)n1Cc1cc(C(=O)NC2CC2)n(CC(F)F)n1", "Result": "14 µL/min/mg"}
{"Smiles Data": "CCC(=O)c1c(-c2ccccc2)c2cc(Cl)ccc2c(=O)n1Cc1cc(C(=O)NC2CC2)n(C)n1", "Result": "44 µL/min/mg"}
{"Smiles Data": "CCC(=O)c1c(-c2ccccc2)c2cc(Cl)ccc2c(=O)n1Cc1cc(S(C)(=O)=O)n(CCC(C)(C)O)n1", "Result": "102 µL/min/mg"}
{"Smiles Data": "CCC(=O)c1c(-c2ccccc2)c2cc(Cl)ccc2c(=O)n1Cc1cc(C(N)=O)n(CC)n1", "Result": "35 µL/min/mg"}
{"Smiles Data": "CCC(=O)c1c(-c2ccccc2)c2cc(Cl)ccc2c(=O)n1Cc1cc(C(=O)NC)n(C)n1", "Result": "79 µL/min/mg"}

With those in mind, consider the next molecule.
IN: Find the recorded microsomal CLint at 1 µM belonging to CCC(=O)c1c(-c2ccccc2)c2cc(Cl)ccc2c(=O)n1Cc1cc(C(=O)N(C)C)n(C)n1 and report it.
OUT: 250 µL/min/mg

====

Target Or Test System: Mitogen-activated protein kinase 8 (Homo sapiens)
Method: Inhibition of human JNK1 by radiometric assay
Listed next: entries and their corresponding IC50.
Response body: numeric value in nM, unit text excluded.

Some compounds with recorded IC50:
{"Smiles Data": "CCC(=O)c1c(-c2ccccc2)c2cc(Cl)ccc2c(=O)n1Cc1cc(C(=O)NC2CC2)n(CC(F)F)n1", "Target Or Test System": "Mitogen-activated protein kinase 8 (Homo sapiens)", "Recorded Number": 10}
{"Smiles Data": "CCC(=O)c1c(-c2ccccc2)c2cc(Cl)ccc2c(=O)n1Cc1cc(C(=O)NC)n(C)n1", "Target Or Test System": "Mitogen-activated protein kinase 8 (Homo sapiens)", "Recorded Number": 9.4}
{"Smiles Data": "CCNC(=O)n1ccc(Cn2c(C(=O)CC)c(-c3ccccc3)c3cc(Cl)ccc3c2=O)n1", "Target Or Test System": "Mitogen-activated protein kinase 8 (Homo sapiens)", "Recorded Number": 8.6}
{"Smiles Data": "CCC(=O)c1c(-c2ccccc2)c2cc(Cl)ccc2c(=O)n1Cc1cc(C(N)=O)n(CC)n1", "Target Or Test System": "Mitogen-activated protein kinase 8 (Homo sapiens)", "Recorded Number": 11}

Next, consider the following compound.
IN: Which IC50 is reported for this compound? CCC(=O)c1c(-c2ccccc2)c2cc(Cl)ccc2c(=O)n1Cc1cn(C(=O)NC)c(C)n1
OUT: 6.8
